Measured Kd by item
- System Under Test: Fc-fusion protein of human PSMA (hPSMA-Fc) (Homo sapiens)
- Construct: purchased Acro Biosystems PSA-H5264
- Sequence (Q04609 44-750 limits assumed): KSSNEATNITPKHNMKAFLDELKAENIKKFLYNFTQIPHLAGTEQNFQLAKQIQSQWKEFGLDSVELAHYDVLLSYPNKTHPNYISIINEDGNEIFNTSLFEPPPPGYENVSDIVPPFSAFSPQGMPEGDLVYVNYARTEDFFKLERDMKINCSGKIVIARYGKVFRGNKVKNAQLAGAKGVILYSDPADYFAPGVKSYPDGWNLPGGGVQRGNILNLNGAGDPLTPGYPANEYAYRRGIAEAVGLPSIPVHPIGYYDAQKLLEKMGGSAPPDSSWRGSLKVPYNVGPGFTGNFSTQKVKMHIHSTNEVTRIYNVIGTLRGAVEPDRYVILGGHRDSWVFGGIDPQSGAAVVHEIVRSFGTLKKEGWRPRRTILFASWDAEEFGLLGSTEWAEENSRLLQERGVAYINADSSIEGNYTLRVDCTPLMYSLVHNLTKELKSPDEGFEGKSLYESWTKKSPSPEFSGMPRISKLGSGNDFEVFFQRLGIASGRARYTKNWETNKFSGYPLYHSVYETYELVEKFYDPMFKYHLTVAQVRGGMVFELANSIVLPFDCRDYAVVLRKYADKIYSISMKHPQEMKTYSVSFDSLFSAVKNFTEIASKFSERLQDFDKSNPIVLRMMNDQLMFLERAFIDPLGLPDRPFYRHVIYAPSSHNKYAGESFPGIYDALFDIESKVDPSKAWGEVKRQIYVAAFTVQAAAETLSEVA
- Assay Details: Surface plasmon resonance assay (Biacore T200, single cycle kinetic)
- Type: binding
- Measurement Parameters: PSMA SPR assay, hPSMA-Fc, 25° C.; pKD category; read-out: pKD CAT (converted)
Bridge positions count the residues as written; N and C are the ends. Square brackets hold non-standard residues; d marks the D form. Peptide text beside a SMILES is read from it. Phe(4-CN) = N#Cc1ccc(C[C@H](N)C(=O)O)cc1; Phe(4-F) = N[C@@H](Cc1ccc(F)cc1)C(=O)O; Tle = CC(C)(C)[C@H](N)C(=O)O; Aib = CC(C)(N)C(=O)O

Study these solved cases before continuing.
1) CC(=O)N[C@H](C(=O)NC(C)(C)C(=O)N[C@@H](Cc1ccccc1)C(=O)N[C@H]1CSSC[C@@H](C(=O)N[C@H](C(=O)N[C@H](C(N)=O)[C@@H](C)O)C(C)(C)C)NC(=O)[C@H](CO)NC(=O)C(C)(C)NC(=O)[C@H](CCCNC(=N)N)NC(=O)[C@H](CCCCN)NC1=O)[C@@H](C)O [PSM-0279] (Ac-T[Aib]FCKR[Aib]SC[Tle]T-NH2; disulfide 4-9)	< 12.6 nM
2) CC(=O)N[C@H](C(=O)NC(C)(C)C(=O)N[C@@H](Cc1ccc(C#N)cc1)C(=O)N[C@H]1CSSC[C@@H](C(=O)N[C@H](C(=O)N[C@H](C(N)=O)[C@@H](C)O)C(C)(C)C)NC(=O)[C@H](CC(N)=O)NC(=O)C(C)(C)NC(=O)[C@H](CCCNC(=N)N)NC(=O)[C@H](CCCCN)NC1=O)[C@@H](C)O [PSM-0278] (Ac-T[Aib][Phe(4-CN)]CKR[Aib]NC[Tle]T-NH2; disulfide 4-9)	< 12.6 nM

Ask: Could you tell me which Kd is on file for CC(=O)N[C@H](C(=O)NC(C)(C)C(=O)N[C@@H](Cc1ccc(F)cc1)C(=O)N[C@H]1CSSC[C@@H](C(=O)N[C@H](C(=O)N[C@H](C(N)=O)[C@@H](C)O)C(C)(C)C)NC(=O)[C@H](CC(N)=O)NC(=O)C(C)(C)NC(=O)[C@H](CCCNC(=N)N)NC(=O)[C@H](CCCCN)NC1=O)[C@@H](C)O [PSM-0294] (Ac-T[Aib][Phe(4-F)]CKR[Aib]NC[Tle]T-NH2; disulfide 4-9) ?
Reply: < 12.6 nM
